Quick reference for IC50 among some compounds
# assay target: UniProtKB P29474
# Sequence (P29474 whole entry): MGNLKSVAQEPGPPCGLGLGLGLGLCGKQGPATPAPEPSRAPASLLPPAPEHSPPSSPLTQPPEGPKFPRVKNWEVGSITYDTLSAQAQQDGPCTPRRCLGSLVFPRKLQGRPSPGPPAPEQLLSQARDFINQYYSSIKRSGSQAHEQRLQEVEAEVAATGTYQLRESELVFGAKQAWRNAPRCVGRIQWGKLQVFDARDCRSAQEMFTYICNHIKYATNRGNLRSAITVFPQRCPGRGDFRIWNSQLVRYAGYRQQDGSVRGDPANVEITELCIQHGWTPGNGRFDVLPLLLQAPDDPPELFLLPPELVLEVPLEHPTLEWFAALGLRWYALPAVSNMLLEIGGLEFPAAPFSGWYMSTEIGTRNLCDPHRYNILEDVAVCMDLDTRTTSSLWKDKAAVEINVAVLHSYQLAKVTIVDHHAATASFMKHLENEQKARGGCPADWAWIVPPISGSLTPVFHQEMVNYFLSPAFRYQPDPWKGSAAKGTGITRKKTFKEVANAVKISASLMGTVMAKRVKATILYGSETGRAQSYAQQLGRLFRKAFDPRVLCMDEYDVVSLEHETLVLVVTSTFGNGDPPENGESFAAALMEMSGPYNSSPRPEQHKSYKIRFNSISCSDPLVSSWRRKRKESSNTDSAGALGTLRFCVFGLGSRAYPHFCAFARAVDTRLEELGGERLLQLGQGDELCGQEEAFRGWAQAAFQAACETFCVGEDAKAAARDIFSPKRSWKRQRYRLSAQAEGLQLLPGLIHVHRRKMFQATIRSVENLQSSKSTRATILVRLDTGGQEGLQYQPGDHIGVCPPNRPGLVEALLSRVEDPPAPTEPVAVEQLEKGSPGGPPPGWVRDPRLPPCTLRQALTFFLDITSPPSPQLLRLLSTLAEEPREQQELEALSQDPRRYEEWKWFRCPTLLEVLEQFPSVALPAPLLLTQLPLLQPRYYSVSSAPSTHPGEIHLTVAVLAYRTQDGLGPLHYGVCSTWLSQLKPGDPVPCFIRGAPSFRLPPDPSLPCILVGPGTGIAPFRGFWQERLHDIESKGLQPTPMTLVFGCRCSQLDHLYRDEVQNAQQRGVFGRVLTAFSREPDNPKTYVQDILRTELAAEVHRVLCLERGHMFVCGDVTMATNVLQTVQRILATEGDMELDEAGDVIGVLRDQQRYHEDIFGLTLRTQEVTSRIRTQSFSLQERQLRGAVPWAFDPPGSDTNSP
# experimental protocol: Ability to inhibit conversion of [3H]L-Arg to [3H]L-citrulline catalyzed by endothelial NOS (e NOS) from HUVEC cells

| compound | IC50, µM |
| --- | --- |
| COC(=O)[C@@H](N)CCCNC(=N)N[N+](=O)[O-] [L-NAME] | 2.7 |
| NC1=NC(c2ccccc2F)Cc2ccccc21 (centres undefined) | 44 |
| NC1=NCCCc2ccccc21 | 12 |
| N=C(N)NN [PIMAGEDINE] | 72 |

The reported measurements were obtained from ChEMBL document CHEMBL1134020.
